pIC50 overview
# Tested on: Murine leukemia (L1210) cells
# Test Name: Cytostatic activity, L1210 cell proliferation
# Format: cell-based
# Experimental Setup: mean ± SD of three experiments; highest concentration tested 250 µM; 2 days; read-out: Toxicity (IC50) L1210
pIC50: −log10 of the molar value.

Mol Smiles	pIC50
CN[C@H](CC(C)C)C(=O)N[C@H]1C(=O)N[C@@H](CC(N)=O)C(=O)N[C@H]2C(=O)N[C@H]3C(=O)N[C@H](C(=O)N[C@H](C(=O)NCC(=O)Nc4cc(OC)cc(OC)c4)c4cc(O)cc(O)c4-c4cc3ccc4O)[C@H](O)c3ccc(c(Cl)c3)Oc3cc2cc(c3O[C@@H]2O[C@H](CO)[C@@H](O)[C@H](O)[C@H]2O[C@H]2C[C@](C)(N)[C@H](O)[C@H](C)O2)Oc2ccc(cc2Cl)[C@H]1O	< 3.60
CN[C@H](CC(C)C)C(=O)N[C@H]1C(=O)N[C@@H](CC(N)=O)C(=O)N[C@H]2C(=O)N[C@H]3C(=O)N[C@H](C(=O)N[C@H](C(=O)NCC(=O)Nc4ccc(OC)cc4)c4cc(O)cc(O)c4-c4cc3ccc4O)[C@H](O)c3ccc(c(Cl)c3)Oc3cc2cc(c3O[C@@H]2O[C@H](CO)[C@@H](O)[C@H](O)[C@H]2O[C@H]2C[C@](C)(N)[C@H](O)[C@H](C)O2)Oc2ccc(cc2Cl)[C@H]1O	< 3.60
CN[C@H](CC(C)C)C(=O)N[C@H]1C(=O)N[C@@H](CC(N)=O)C(=O)N[C@H]2C(=O)N[C@H]3C(=O)N[C@H](C(=O)N[C@H](C(=O)NCC(=O)Nc4ccc(F)cc4F)c4cc(O)cc(O)c4-c4cc3ccc4O)[C@H](O)c3ccc(c(Cl)c3)Oc3cc2cc(c3O[C@@H]2O[C@H](CO)[C@@H](O)[C@H](O)[C@H]2O[C@H]2C[C@](C)(N)[C@H](O)[C@H](C)O2)Oc2ccc(cc2Cl)[C@H]1O	< 3.60
